assay: Acute toxicity (lethal action); details: mouse, in vivo, 400 mg/Kg oral, mice, hydrochloride, read-out: Acute Toxicity (Lethal Ratio %)
METRIC: mortality at 24 h (%)
Numbers only, in %.

Look over these answered cases.
[
  {
    "MOLECULE": "CCc1nccn1-c1ccc(Cl)c(Cl)c1 [C, 1-(3,4-Dichlorophenyl)-2-ethylimidazole]",
    "METRIC": "mortality at 24 h",
    "OUTPUT_UNIT": "%",
    "READOUT_VALUE": 20
  },
  {
    "MOLECULE": "CCc1nccn1-c1ccc(NC(=O)c2ccc(C)cc2)cc1 [O]",
    "METRIC": "mortality at 24 h",
    "OUTPUT_UNIT": "%",
    "READOUT_VALUE": 20
  }
]

Field: next molecule
[Q] Form field: reported mortality at 24 h of Cc1ccc(-n2ccnc2C)cc1N [I]
[A] 20
